test system: Escherichia coli TOP10; assay: shrunken log2 fold change of peptide-encoding DNA abundance (4.5 h post-induction vs induction); higher = less antimicrobial activity (less host growth inhibition); settings: time post-induction: 4.5 h; library: site-saturation at positions 5, 18, 19, 20
Kindly supply the reported shrunken log2 fold change values for the records listed here.
One number for each entry.

>>> readout_value("RRIRMRPPRLPRPRPRPAGCPRP")
0.842
>>> readout_value("RRIRRRPPRLPRPRPRPSKQPRP")
-0.118

Give one value of shrunken log2 fold change per listed sequence.
1. RRIRSRPPRLPRPRPRPILKPRP
2. RRIRARPPRLPRPRPRPILMPRP
3. RRIRRRPPRLPRPRPRPKVVPRP
4. RRIRARPPRLPRPRPRPEGAPRP
5. RRIRCRPPRLPRPRPRPTVNPRP

1. -0.469
2. 0.143
3. 0.0343
4. 1.37
5. -0.184

---

test system: Escherichia coli TOP10; experiment: shrunken log2 fold change of peptide-encoding DNA abundance (4.5 h post-induction vs induction); higher = less antimicrobial activity (less host growth inhibition); details: time post-induction: 4.5 h; library: site-saturation at positions 5, 18, 19, 20
Class criterion met: shrunken log2 fold change at least 0.06. Class criterion not met: shrunken log2 fold change below 0.06.

>>> label_value("RRIRHRPPRLPRPRPRPMWMPRP")
"criterion not met"
>>> label_value("RRIRPRPPRLPRPRPRPFLPPRP")
"criterion not met"

Please indicate if the recorded shrunken log2 fold change for RRIRTRPPRLPRPRPRPVRSPRP meets or exceeds 0.06.
criterion met

Please indicate if the recorded shrunken log2 fold change for RRIRNRPPRLPRPRPRPGRWPRP meets or exceeds 0.06.
criterion met

Please indicate if the recorded shrunken log2 fold change for RRIRERPPRLPRPRPRPIVRPRP meets or exceeds 0.06.
criterion not met

Please indicate if the recorded shrunken log2 fold change for RRIRIRPPRLPRPRPRPLHGPRP meets or exceeds 0.06.
criterion not met

Please indicate if the recorded shrunken log2 fold change for RRIRNRPPRLPRPRPRPFAPPRP meets or exceeds 0.06.
criterion not met

Please indicate if the recorded shrunken log2 fold change for RRIRPRPPRLPRPRPRPQNPPRP meets or exceeds 0.06.
criterion not met

Please indicate if the recorded shrunken log2 fold change for RRIRGRPPRLPRPRPRPWNNPRP meets or exceeds 0.06.
criterion met

Please indicate if the recorded shrunken log2 fold change for RRIRIRPPRLPRPRPRPFREPRP meets or exceeds 0.06.
criterion not met

---

system: Escherichia coli TOP10; test: shrunken log2 fold change of peptide-encoding DNA abundance (4.5 h post-induction vs induction); higher = less antimicrobial activity (less host growth inhibition); conditions: time post-induction: 4.5 h; library: site-saturation at positions 5, 18, 19, 20;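 note: peptides expressed intracellularly from a pBAD plasmid library in pooled LB shake-flask culture, induced with 0.3% L-arabinose, DNA abundance read by NGS, three biological replicates, DESeq2 with apeglm shrinkage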
Class true (1): shrunken log2 fold change at least -0.008. Class false (0): shrunken log2 fold change below -0.008.

>>> label_value("RRIRQRPPRLPRPRPRPLMPPRP")
"false (0)"

Please indicate if the recorded shrunken log2 fold change for RRIRHRPPRLPRPRPRPQPNPRP meets or exceeds -0.008.
false (0)

Please indicate if the recorded shrunken log2 fold change for RRIRNRPPRLPRPRPRPTLRPRP meets or exceeds -0.008.
true (1)

Please indicate if the recorded shrunken log2 fold change for RRIRLRPPRLPRPRPRPVFVPRP meets or exceeds -0.008.
false (0)

Please indicate if the recorded shrunken log2 fold change for RRIRIRPPRLPRPRPRPCQKPRP meets or exceeds -0.008.
false (0)

Please indicate if the recorded shrunken log2 fold change for RRIRWRPPRLPRPRPRPPSVPRP meets or exceeds -0.008.
true (1)

Please indicate if the recorded shrunken log2 fold change for RRIRGRPPRLPRPRPRPEDGPRP meets or exceeds -0.008.
true (1)

Please indicate if the recorded shrunken log2 fold change for RRIRERPPRLPRPRPRPISKPRP meets or exceeds -0.008.
false (0)

Please indicate if the recorded shrunken log2 fold change for RRIRTRPPRLPRPRPRPEEPPRP meets or exceeds -0.008.
true (1)

Please indicate if the recorded shrunken log2 fold change for RRIRSRPPRLPRPRPRPYCVPRP meets or exceeds -0.008.
false (0)

Please indicate if the recorded shrunken log2 fold change for RRIRFRPPRLPRPRPRPAELPRP meets or exceeds -0.008.
true (1)

Please indicate if the recorded shrunken log2 fold change for RRIRWRPPRLPRPRPRPVLQPRP meets or exceeds -0.008.
true (1)

Please indicate if the recorded shrunken log2 fold change for RRIRKRPPRLPRPRPRPYFVPRP meets or exceeds -0.008.
false (0)

Please indicate if the recorded shrunken log2 fold change for RRIRERPPRLPRPRPRPGWFPRP meets or exceeds -0.008.
false (0)

Please indicate if the recorded shrunken log2 fold change for RRIRSRPPRLPRPRPRPAITPRP meets or exceeds -0.008.
false (0)

Please indicate if the recorded shrunken log2 fold change for RRIRHRPPRLPRPRPRPSFDPRP meets or exceeds -0.008.
false (0)

Please indicate if the recorded shrunken log2 fold change for RRIRYRPPRLPRPRPRPSDPPRP meets or exceeds -0.008.
false (0)
